Tested on: detrusor muscle
PROTOCOL TEXT: Test Example 1: relaxation of guinea pig bladder strips contracted with 50 mM KCl
Format: cell-based, guinea pig (male albino Hartley)
EXPERIMENTAL SETUP: Cavia porcellus; contraction induced by 50 mM KCl; concentration decreasing detrusor contraction by 50%
Reported IC50 by item:
MEASURED METRIC: IC50

COMPOUND | RECORDED MEASUREMENT
CC(O)(C(=O)Nc1cccc2ccc3ccccc3c(=O)c12)C(F)(F)F (stereo not drawn) | > 10 µM
COc1ccc(NC(=O)C(C)(O)C(F)(F)F)c2c1OCc1ccccc1C2=O (stereo not drawn) | > 10 µM
CC(O)(C(=O)Nc1ccc2c(c1)CCc1ncccc1C2=O)C(F)(F)F (stereo not drawn) | > 10 µM

Source: patent US5726325A
